assaySystem: PBMC/LMP2 (Homo sapiens, UniProt P28065)
testSummary: Durability of binding in cells, wash-out assay, PBMC/LMP2
Type: cell-based
runConditions: 2 h incubation, inhibitor washout, 30 min in culture
measuredParameter: pIC50
One number for each entry, as −log10 of the molar value.

Ask: Would you kindly share the measured pIC50 for CC(C)C=C(C#N)C(=O)N1CCC[C@@H]1COC[C@H](NC(=O)c1cc(Cl)ccc1Cl)C(=O)N[C@@H](Cc1ccccc1)B(O)O [Example 14] ?
Result: 7.57

----------
assaySystem: immunoproteasome LMP7/B5i subunit (Homo sapiens, UniProt P28062)
testSummary: Caliper-based proteasome enzymatic activity assay, LMP7
Assay type: biochemical
measuredParameter: pIC50
One number for each entry, as −log10 of the molar value.

Ask: Param readout = pIC50; param system = immunoproteasome LMP7/B5i subunit (Homo sapiens, UniProt P28062); param query = C=CC(=O)N1CCC[C@H](OC(=O)N[C@@H](Cc2ccc(F)cc2)B(O)O)C1 ; response: value
Result: 6.97

----------
assaySystem: constitutive proteasome β5c unit (Homo sapiens)
testSummary: Caliper-based proteasome enzymatic activity assay, β5c
Type: biochemical
runConditions: human recombinant constitutive proteasome 0.3 nM, FAM-labeled peptide substrate 1 μM, rt 3 h; read-out: β5c subunit IC50
measuredParameter: pIC50
Give bare numbers, as −log10 of the molar value.

CC(C)C=C(C#N)C(=O)NCCCC[C@H](NC(=O)[C@H](C)NC(=O)C(C)C)C(=O)N[C@@H](CC(C)C)B(O)O [Example 1]    7.92
CC(C)(C=C(C#N)C(=O)N1CCC[C@H](OC(=O)N[C@@H](Cc2ccccc2)B(O)O)C1)N1CCN2C(=O)OC[C@H]2C1 [Example 98]    5.60
CC(C)(C=C(C#N)C(=O)N1CCC[C@@H]1CNC(=O)N[C@@H](Cc1coc2ccccc12)B(O)O)N1CCOCC1 [Example 47]    5.72
CC1(C)CCN(C(C)(C)C=C(C#N)C(=O)N2CCC[C@H](OC(=O)N[C@@H](Cc3coc4ccccc34)B(O)O)C2)C1 [Example 68]    5.91
CC1(C)CN(C(C)(C)C=C(C#N)C(=O)N2C3CCC2(COC(=O)N[C@@H](Cc2ccccc2)B(O)O)CC3)CCO1 [Example 119]    6.16

Quick one: give me pIC50 for each item below, same order please.
1. CC(C)(C=C(C#N)C(=O)N1C[C@H](OC(=O)N[C@@H](Cc2ccccc2)B(O)O)[C@@H](F)C1)N1CCC(F)(F)C1 [Example 109]
2. CC(C)C=C(C#N)C(=O)N1CCC[C@@H]1COC[C@H](NCC(F)(F)F)C(=O)N[C@@H](Cc1ccccc1)B(O)O [Example 23]
3. CC(C)(C=C(C#N)C(=O)N1CC[C@H](COC(=O)N[C@@H](Cc2ccccc2)B(O)O)C1)N1CCOCC1 [Example 99]
4. CC(C)(C=C(C#N)C(=O)N1C2CCC1(COC(=O)N[C@@H](Cc1ccccc1)B(O)O)CC2)N1CC2CC(C1)O2 [Example 132]
5. CC(C)C=C(C#N)C(=O)N(C)c1cccc(C[C@H](NCC(F)(F)F)C(=O)N[C@@H](CC(C)C)B(O)O)c1 [Example 27]

Result:
6.21
6.35
5.42
5.97
6.76

----------
assaySystem: constitutive proteasome β5c unit (Homo sapiens, UniProt P28074)
testSummary: Caliper-based proteasome enzymatic activity assay, β5c
runConditions: human recombinant constitutive proteasome 0.3 nM, FAM-labeled peptide substrate 1 μM, rt 3 h; read-out: β5c subunit IC50
measuredParameter: log10 IC50 (log10 of the value in nM)
// units: nM (pre-log); metric: IC50; scale: log10

Quick one: give me log10 IC50 for each item below, same order please.
1. CC(C)C=C(C#N)C(=O)N1CCC[C@@H]1COC[C@H](NC(=O)c1cc(Cl)ccc1Cl)C(=O)N[C@@H](Cc1ccccc1)B(O)O [Example 14]
2. CC(C)(C=C(C#N)C(=O)N1CCCC[C@@H](OC(=O)N[C@@H](Cc2ccccc2)B(O)O)C1)N1CC2CC(C1)O2 [Example 134]
3. C=CC(=O)N1CC[C@H](OC(=O)N[C@@H](Cc2ccccc2)B(O)O)C1 [Example 88]
4. CC(C)(C=C(C#N)C(=O)N1CC[C@@H]1COC(=O)N[C@@H](Cc1ccccc1)B(O)O)N1CCC(F)(F)C1 [Example 54]

Result:
1: 0.38; 2: 3.00; 3: 3.21; 4: 2.70

Quick one: give me log10 IC50 for each item below, same order please.
1. CC(C)C=C(C#N)C(=O)N1CCC[C@@H]1COC[C@H](NCC(F)(F)F)C(=O)N[C@@H](CC(C)C)B(O)O [Example 28]
2. CC(C)(C=C(C#N)C(=O)N1CCC[C@H](OC(=O)N[C@@H](Cc2ccccc2)B(O)O)C1)N1CCN2C(=O)OC[C@@H]2C1 [Example 97]
3. CC1(C)CCN(C(C)(C)C=C(C#N)C(=O)N2CCC[C@H](OC(=O)N[C@@H](Cc3ccc(F)cc3)B(O)O)C2)C1 [Example 72]

Result:
2.47
3.29
2.93

Quick one: give me log10 IC50 for each item below, same order please.
1. CC(C)(C=C(C#N)C(=O)N1CC[C@@H](OC(=O)N[C@@H](Cc2ccccc2)B(O)O)C1)N1CCC(F)(F)C1 [Example 90]
2. CC(C)(C=C(C#N)C(=O)N1CCC[C@@H](CC(=O)N[C@@H](Cc2ccccc2)B(O)O)C1)N1CCC(F)(F)C1 [Example 59]
3. C=CC(=O)N1CCC[C@H](OC(=O)N[C@@H](Cc2coc3ccccc23)B(O)O)C1 [Example 65]
4. CC(C)(C=C(C#N)C(=O)N1C2CCC1(COC(=O)N[C@@H](Cc1ccc(F)cc1)B(O)O)CC2)N1CCOCC1 [Example 82]
5. C[C@@H]1CN(C(C)(C)C=C(C#N)C(=O)N2C3CCC2(COC(=O)N[C@@H](Cc2ccccc2)B(O)O)CC3)CCO1 [Example 118]
6. CN1CCN(C(C)(C)C=C(C#N)C(=O)N2CCC[C@H](OC(=O)N[C@@H](Cc3ccccc3)B(O)O)C2)CC1 [Example 80]
7. CC(C)C=C(C#N)C(=O)NCCCC[C@H](NC(=O)[C@@H](NC(=O)C(C)C)[C@@H](C)O)C(=O)N[C@@H](Cc1ccccc1)B(O)O [Example 10]

Result:
1: 3.20; 2: 2.21; 3: 2.62; 4: 3.14; 5: 3.06; 6: 3.14; 7: 1.17

Quick one: give me log10 IC50 for each item below, same order please.
1. C=C(F)C(=O)N1CCC[C@H](OC(=O)N[C@@H](Cc2ccc(F)cc2)B(O)O)C1 [Example 74]
2. C[C@@H]1CN(C(C)(C)C=C(C#N)C(=O)N2CCCC[C@@H](OC(=O)N[C@@H](Cc3ccccc3)B(O)O)C2)C[C@@H](C)O1 [Example 129]
3. CC(C)(C=C(C#N)C(=O)N1C2CCC1(COC(=O)N[C@@H](Cc1ccc(F)cc1)B(O)O)CC2)N1CCC(F)(F)C1 [Example 84]

Result:
3.32
2.87
2.45
